Data credit: the supplement of paper PMC13380429

# Tested on: Caco-2
# procedureText: cell viability relative to DMSO; higher = less toxic
# conditions: 72 h; 100 nM
endpointLabel: cell viability (%)
One number for each entry, in %.

Parameters: items (list). Returns: cell viability for each item.
1. COc1cc(/C=C/c2ccc(OC)cc2OC)cc(OC)c1 [TMS]
2. O=C1c2c(O)cc(O)cc2O[C@H](c2cc(O)c(O)c(O)c2)[C@H]1O [dihydromyricetin]
3. Cc1cc(C)cc(C(=O)NOCCCCCC(=O)NO)c1 [LMK-235]
4. C[C@@H]1Cc2c([nH]c3ccccc23)[C@@H](c2c(F)cc(/C=C/C(=O)O)cc2F)N1CC(C)(C)F [AZD9496]
5. c1ccc2nc(C3=NCCN3)cnc2c1 [BU-239]

Data returned:
1. 81.6
2. 95.6
3. 96.4
4. 99.6
5. 102
